assay name: Preliminary pharmacokinetic test, intravenous injection
Format: in vivo, SD rats
test settings: male, SD, rat, plasma, iv, 5 mg/kg, rats, intravenous injection 5 mg/kg, Mean; tested as monomesylate
experimental endpoint: clearance (mL/min/kg)
The reply should be a number in mL/min/kg, with the unit left off.

Sure, the documented clearance for COC(=O)Nc1cc(C(F)(F)F)c(-c2nc(N3CCOCC3)c3cc(CN4CCN(S(C)(=O)=O)CC4)c(C)n3n2)cn1 is 26.8

* * *

measured target: PI3Kβ (Homo sapiens, UniProt P42338)
Sequence (P42338 whole entry, canonical isoform): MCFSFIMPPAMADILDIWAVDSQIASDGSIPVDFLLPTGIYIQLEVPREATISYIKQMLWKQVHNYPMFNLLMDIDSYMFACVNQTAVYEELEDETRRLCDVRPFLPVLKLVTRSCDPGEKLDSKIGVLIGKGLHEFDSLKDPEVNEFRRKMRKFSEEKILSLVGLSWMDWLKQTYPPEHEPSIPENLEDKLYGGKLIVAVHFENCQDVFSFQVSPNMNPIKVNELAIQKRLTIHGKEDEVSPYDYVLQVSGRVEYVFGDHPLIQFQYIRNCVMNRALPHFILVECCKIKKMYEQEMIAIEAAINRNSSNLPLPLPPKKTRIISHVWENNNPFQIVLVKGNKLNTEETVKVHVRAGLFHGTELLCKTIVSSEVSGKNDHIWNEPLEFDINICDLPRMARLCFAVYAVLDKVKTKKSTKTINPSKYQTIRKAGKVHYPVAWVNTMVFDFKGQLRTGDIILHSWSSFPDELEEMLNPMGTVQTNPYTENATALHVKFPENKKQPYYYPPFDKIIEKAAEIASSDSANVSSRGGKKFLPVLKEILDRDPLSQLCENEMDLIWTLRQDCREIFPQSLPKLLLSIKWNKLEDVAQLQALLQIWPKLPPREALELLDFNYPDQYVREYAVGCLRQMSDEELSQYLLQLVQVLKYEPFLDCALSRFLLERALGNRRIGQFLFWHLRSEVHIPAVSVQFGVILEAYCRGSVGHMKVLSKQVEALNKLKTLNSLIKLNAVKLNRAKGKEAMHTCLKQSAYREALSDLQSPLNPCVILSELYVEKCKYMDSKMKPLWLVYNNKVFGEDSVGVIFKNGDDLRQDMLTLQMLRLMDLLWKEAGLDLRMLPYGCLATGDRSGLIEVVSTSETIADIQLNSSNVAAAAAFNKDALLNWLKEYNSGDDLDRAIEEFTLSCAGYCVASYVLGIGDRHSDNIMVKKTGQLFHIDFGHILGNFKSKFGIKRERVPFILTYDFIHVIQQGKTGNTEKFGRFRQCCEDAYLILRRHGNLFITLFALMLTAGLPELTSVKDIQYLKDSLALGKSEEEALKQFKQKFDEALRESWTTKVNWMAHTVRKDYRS
Sequence (P27986 whole entry partner, canonical isoform): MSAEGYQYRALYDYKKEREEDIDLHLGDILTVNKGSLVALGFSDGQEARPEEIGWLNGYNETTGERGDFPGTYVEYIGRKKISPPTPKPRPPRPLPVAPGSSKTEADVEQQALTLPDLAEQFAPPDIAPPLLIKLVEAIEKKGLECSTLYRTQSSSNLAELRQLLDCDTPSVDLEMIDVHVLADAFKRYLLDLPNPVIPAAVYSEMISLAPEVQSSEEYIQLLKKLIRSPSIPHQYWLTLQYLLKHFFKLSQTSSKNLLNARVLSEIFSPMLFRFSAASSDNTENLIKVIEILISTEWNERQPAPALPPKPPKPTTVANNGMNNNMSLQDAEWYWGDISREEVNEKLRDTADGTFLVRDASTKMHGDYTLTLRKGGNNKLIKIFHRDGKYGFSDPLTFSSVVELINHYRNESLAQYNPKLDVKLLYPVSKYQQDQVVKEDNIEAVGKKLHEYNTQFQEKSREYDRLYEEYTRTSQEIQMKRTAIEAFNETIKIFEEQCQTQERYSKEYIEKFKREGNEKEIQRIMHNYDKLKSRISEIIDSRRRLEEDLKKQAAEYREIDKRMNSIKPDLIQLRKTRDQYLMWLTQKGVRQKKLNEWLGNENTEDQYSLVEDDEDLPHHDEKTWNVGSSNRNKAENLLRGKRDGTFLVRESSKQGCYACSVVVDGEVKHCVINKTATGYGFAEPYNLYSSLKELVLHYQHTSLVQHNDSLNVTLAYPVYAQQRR
assay name: PI3K kinase activity, β isoform;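 also: kinase reaction containing 1% DMSO, read as an emission ratio, with inhibition scaled between the 0% and 100% control ratios. IC50 values come from a ten-point fourfold dilution series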
Classify: t when IC50 is strictly less than 1 µM; f when IC50 is not.

Prompt line: Quick check: IC50 of Cc1c(CN2CCN(S(C)(=O)=O)CC2)cc2c(N3CCOCC3)nc(-c3cnc(N)cc3C(F)(F)F)nn12 under 1 µM?
Response line: f

Prompt line: Please determine if Cc1c(CN2CCC(N(C)C)CC2)cc2c(N3CCOCC3)nc(-c3cnc(N)cc3C(F)(F)F)nn12 is below 1 µM in terms of IC50.
Response line: f

Prompt line: Criterion: IC50 strictly below 1 µM. Is it met by Cc1c(CN2CCN(C(=O)[C@H](C)O)CC2)cc2c(N3CCOCC3)nc(-c3cnc(N)cc3C(F)(F)F)nn12 ?
Response line: f

Prompt line: Take the compound Cc1c(CN2CCN(S(C)(=O)=O)CC2)cc2c(N3CCOCC3)nc(-c3cnc(NC(=O)Nc4ccc(F)cc4)cc3C(F)(F)F)nn12 and say whether its IC50 is less than 1 µM.
Response line: t

Prompt line: is_below(IC50, 1 µM) for CCN1CCN(Cc2cc3c(N4CCOCC4)nc(-c4cnc(N)cc4C(F)(F)F)nn3c2C)CC1 ?
Response line: f

Prompt line: Here's an entry: COC(=O)Nc1cc(C(F)(F)F)c(-c2nc(N3CCOCC3)c3cc(CN4CCN(S(C)(=O)=O)CC4)c(C)n3n2)cn1 . Is its IC50 below 1 µM?
Response line: t

Prompt line: State whether 1 µM exceeds IC50 recorded for Cc1c(CN2CCN(S(C)(=O)=O)CC2)cc2c(N3CCOCC3)nc(-c3cnc(NC(=O)NC4CC4)cc3C(F)(F)F)nn12 .
Response line: t

Prompt line: Item CCNC(=O)Nc1cc(C(F)(F)F)c(-c2nc(N3CCOCC3)c3cc(CN4CCN(S(C)(=O)=O)CC4)c(C)n3n2)cn1 : IC50 beneath 1 µM, strictly?
Response line: t

Prompt line: Field: below-cutoff. Rule: recorded IC50 strictly less than 1 µM. Subject: Cc1c(CN2CCN(S(C)(=O)=O)CC2)cc2c(N3CCOC[C@@H]3C)nc(-c3cnc(N)cc3C(F)(F)F)nn12
Response line: f

Prompt line: Dear reviewer, please state whether Cc1c(CNCCCN(C)C)cc2c(N3CCOCC3)nc(-c3cnc(N)cc3C(F)(F)F)nn12 has IC50 strictly beneath 1 µM.
Response line: f

Prompt line: Take the compound Cc1c(CN2CCN(S(C)(=O)=O)CC2)cc2c(N3CCOCC3)nc(-c3cnc(NC(=O)NC(C)C)cc3C(F)(F)F)nn12 and say whether its IC50 is less than 1 µM.
Response line: f

Prompt line: State whether 1 µM exceeds IC50 recorded for Cc1c(CN2CCC(C(C)(C)O)CC2)cc2c(N3CCOCC3)nc(-c3cnc(N)cc3C(F)(F)F)nn12 .
Response line: f

Prompt line: Could you please tell me whether IC50 recorded for CS(=O)(=O)N1CCN(Cc2cc3c(N4CCOCC4)nc(-c4cnc(N)cc4C(F)(F)F)nn3c2Cl)CC1 is less than 1 µM?
Response line: f
